# maps each entry to its GI50
System: HL-60
Test: NCI tumour cell line growth inhibition, 48 h
Calls of active or inactive are those of the source. No stated cut-off is given here; in the data, active = GI50 up to about 1.1 µM and inactive = higher.

| molecule | GI50 |
| --- | --- |
| COc1ccccc1NC(=O)CC(=O)n1nc(C)c(/N=N/c2ccccc2Cl)c1C | > 95.5 µM (inactive) |
| CCc1cccc(C(C)C)c1NC(=O)C(=O)C(C(=O)C(=O)OC)c1nc2ccccc2nc1O (stereo not drawn) | > 100 µM (inactive) |
| [N-]=[N+]=Nc1cc(=O)[nH]nc1-c1ccccc1 | > 100 µM (inactive) |
| Nc1ncnc2c1ncn2C1CC(O)C(CO)O1 (stereo not drawn) | > 100 µM (inactive) |
| CC(=O)OCC(OC(C)=O)C(OC(C)=O)C(OC(C)=O)C(=O)CNn1c(-c2ccccc2Cl)nc2ccccc2c1=O (stereo not drawn) | 38.5 µM (inactive) |
| C[C@@H]1OCC(O)C([C@H]2OC(c3ccccc3)=N[C@H]2CO)O1 (stereo partly drawn) | > 100 µM (inactive) |
| C/C=C/C=C/c1cc2cc3c(c(O)c2c(=O)[nH]1)C1(CC3)C(=O)c2c(O)c3c(c(O)c2C1=O)C(=O)C(OC)=CC3=O (stereo not drawn) | < 0.01 µM (active) |
| COc1ccc(-n2c(Cn3nnc(-c4cccnc4)n3)nn(C3OC(COC(=O)c4ccccc4)C(OC(=O)c4ccccc4)C3OC(=O)c3ccccc3)c2=S)cc1 (stereo not drawn) | > 100 µM (inactive) |

---

Tested on: DMS-114
Assay: NCI tumour cell line growth inhibition, 48 h
The source made the active and inactive calls. Cut-off read from the data, not from the text of the source: active = GI50 up to about 1.1 µM and inactive = higher.

| compound | assayed target | GI50 |
| --- | --- | --- |
| C=CCc1c(O)c2c(c3oc(=O)cc(C)c13)CC(C)O2 (stereo unspecified) | DMS-114 | > 100 µM (inactive) |
| CC(=O)/C=C1\CC(=O)Nc2ccccc2N1 | DMS-114 | > 100 µM (inactive) |
| O=C(O)CCC(=O)Oc1ccc(O)c2c1CCCC2=O | DMS-114 | > 100 µM (inactive) |
| O=C(NC1C=Nc2ccc([N+](=O)[O-])cc2NC1=O)c1cc(Cl)cc([N+](=O)[O-])c1 (stereo unspecified) | DMS-114 | 19.7 µM (inactive) |
| Cc1nc2c3c(ccc2nc1O)C(=O)c1ccccc1C3=O | DMS-114 | 44.8 µM (inactive) |
| O=C1NC(Cc2ccc(O)cc2)C(=O)N2CCCC12 (stereo unspecified) | DMS-114 | > 100 µM (inactive) |

---

Tested on: OVCAR-3
Assay: NCI tumour cell line growth inhibition, 48 h
Calls of active or inactive are those of the source. Cut-off read from the data, not from the text of the source: active = GI50 up to about 1.1 µM and inactive = higher.
Outcome codes: YES (active), NO (inactive)

| molecule | assayed target | category label |
| --- | --- | --- |
| Nc1ccc2nc3n(c2c1)C(=O)c1ccccc1-3 | OVCAR-3 | NO |
| COC(=O)c1ccc(COC(=O)N2C=CCC2C(=O)O)cc1 (stereo unspecified) | OVCAR-3 | NO |
| CC(=O)c1cc2c(s1)C(=O)c1ccsc1C2=O | OVCAR-3 | YES |
| C/N=C(\N=c1/ss/c(=N\C)n1C)N(C)C.[O-][Cl+3]([O-])([O-])O | OVCAR-3 | NO |
| COc1ccc(OC)c2sc(N3C(=O)/C(=C/c4ccc(SC)cc4)N=C3c3ccccc3)nc12 | OVCAR-3 | NO |
| Cc1nnc([C@@]2(C)CC[C@H]3[C@@H](CCC4=CC(=O)CC[C@@]43C)[C@@H]2CC#N)o1 | OVCAR-3 | NO |
| Oc1c(C2=NNC(c3cccs3)C2)ccc2ccccc12 (stereo unspecified) | OVCAR-3 | NO |
| O=C(C1OC1c1ccc(F)cc1)C12CC3CC(CC(C3)C1)C2 (stereo unspecified) | OVCAR-3 | NO |
| CC(/C=C/C=C\C=C\C=C(/C)C(=O)NC(C)CO)=C\C(C)C(O)/C(C)=C/C(C)CCc1ccccc1 (stereo unspecified) | OVCAR-3 | NO |
| COC(=O)C(CCS(=O)(=O)CC(=O)C(=O)Nc1cccc(C(C)=O)c1)C(=O)OC | OVCAR-3 | NO |
| CC(C)(C)OC(=O)N1CCc2[nH][nH]c(=O)c2C1 | OVCAR-3 | NO |
| CCOC(=O)C1CC(=O)C=C2CCCCC21 (stereo unspecified) | OVCAR-3 | NO |
| COc1ccc(NC(=O)CC(=O)N2N=C(N3c4ccccc4Sc4ccccc43)CC2c2ccccc2)cc1 (stereo unspecified) | OVCAR-3 | NO |
| COc1cc2c(cc1O)CCN[C@@]21CS[C@H]2c3c(OC(C)=O)c(C)c4c(c3C(COC1=O)N1C2C2c3c(cc(C)c(OC)c3O)CC([C@@H]1O)N2C)OCO4 (stereo partly specified) | OVCAR-3 | YES |
| CCN(CC)CCNC(=O)c1nn(-c2ccc(Cl)cc2)c2c1CCc1cc(OC)ccc1-2 | OVCAR-3 | NO |
| CCOc1ccccc1NC(=O)C(=O)Cc1nc2ccccc2s1 | OVCAR-3 | NO |
| Cc1cccc2[s+]snc12 | OVCAR-3 | NO |
| C=C1[C@H](OC(C)=O)[C@H]2[C@@H](OC(C)=O)[C@@H](C)C[C@]2(C)C(=O)[C@H](C)/C=C/C(C)(C)C(=O)[C@H](OCC(C)C)[C@H]1OC(C)=O | OVCAR-3 | NO |
| CC1(C)N=C(N)N=C(N)N1c1cccc(OCCOc2ccc([N+](=O)[O-])cc2)c1 | OVCAR-3 | NO |
| COc1ccc(CN2C(=O)[C@@H]3Cc4c(OC)c(C)c(OC)c(OC)c4[C@H](/C2=C\c2cc(OC)c(OC)c(C)c2OC)N3C(=O)OC(C)C)cc1 | OVCAR-3 | NO |
| CC(=O)Nc1sc([N+](=O)[O-])cc1S(=O)(=O)c1ccc(Cl)cc1 | OVCAR-3 | NO |
| C[C@@H](c1ccccc1)N1CN(C(=O)OCc2ccccc2)C(CO)C1=O (stereo partly specified) | OVCAR-3 | NO |
| O=c1cc(/N=N\c2ccc(Cl)c(Cl)c2)[nH]c(=O)[nH]1 | OVCAR-3 | NO |
| CCOC(=O)/C=C(/C(=O)OCC)n1cnc2c(=O)[nH]c(NC(C)=O)nc21 | OVCAR-3 | NO |
| NC(=O)CCC(NC(=O)c1c2ccccc2nc2ccccc12)C(=O)O (stereo unspecified) | OVCAR-3 | NO |
| Cc1ccc(S(=O)(=O)NC(=O)NCCc2ccc(O)c(O)c2)cc1 | OVCAR-3 | NO |
| [N-]=[N+]=CC(=O)OC1CCc2ccccc21 (stereo unspecified) | OVCAR-3 | NO |
| O=c1[nH]c(=O)n([C@H]2C[C@@H](CO)[C@@H](O)C2)cc1I | OVCAR-3 | NO |
| C=CCOC(=O)C1=C(C)N=C2N[C@H](CCCCCCCCC)C[C@@H]3CCC1N23 (stereo partly specified) | OVCAR-3 | NO |
| O=C(CNc1nccs1)Nn1cnc2ccc(S(=O)(=O)Nc3nccs3)cc2c1=O | OVCAR-3 | NO |
| COC1=CC(=O)[C@H]2[C@H](C)C(c3ccccc3)[C@@]2(C)C1=O (stereo partly specified) | OVCAR-3 | NO |

Data origin: ChEMBL document CHEMBL1201862
